B1: CPXM2 (parent)
chain: EILGCPLPDPNNYYHRRNEMTTTD

Variants of: B1
Assay: protein stability index of a GFP-peptide fusion (GPS, HEK-293T) (PSI 1-6); higher = more stable;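 also: lentivirally expressed fusions sorted by FACS into six bins by GFP to DsRed ratio, PSI derived from sequencing read proportions per bin multiplied by bin number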
Details: c terminus: a fixed tail appended
Measure name: protein stability index
// keep it numeric: no unit symbol after the value

# Mutation code, Measure name, Value
records = [
    ("H15I", "protein stability index", 3.52),
]

For T23R the variant record lists protein stability index as 3.37

GET /value?item= I2S &field=protein stability index returns 4.51

For record T23W the listed protein stability index is 2.48
